# Tested on: adipose cells of rats
# ASSAY: Evaluation of the sugar transportation activity (2-[14C(U)]-deoxy-D-glucose incorporation)
# Assay type: cell-based, Wistar rats
# PROTOCOL CONDITIONS: concentration with reinforcing effect of 50% of that of insulin (100 nM) = 100%; rat adipose cells, 30 min pre-culture at 37° C., 5 min uptake
QUANTITY KIND: A: sugar transportation activity (EC50) (µg/mL)

Known results for molecules:
COc1ccccc1[C@@H]1C2=C(CNC2=O)N[C@@H]2CCCC[C@H]2N1C(=O)C(F)(F)C(F)(F)F = 9.5
CCc1ccccc1[C@@H]1C2=C(CNC2=O)N[C@@H]2CCCC[C@H]2N1C(=O)OC = 4
COC(=O)CC(=O)N1[C@@H]2CCCC[C@H]2NC2=C(C(=O)NC2)[C@H]1c1ccccc1Cl = 2
CCc1ccccc1[C@@H]1C2=C(CNC2=O)N(CC)[C@@H]2CCCC[C@H]2N1C(C)=O = 5
CCOCC(=O)N1[C@@H]2CCCC[C@H]2NC2=C(C(=O)NC2)[C@H]1c1ccccc1F = 2

[P] COc1ccccc1[C@@H]1C2=C(CNC2=O)N[C@@H]2CCCC[C@H]2N1C(=O)C(F)(F)F
[Q] COC(=O)N1[C@@H]2CCCC[C@H]2NC2=C(C(=O)NC2)[C@H]1c1ccccc1
Q) // which entry has the larger A: sugar transportation activity (EC50) value, P or Q ? # answer = label of selected item
A) P

---

# Test system: adipose cells of rats
# ASSAY: Evaluation of the sugar transportation activity (2-[14C(U)]-deoxy-D-glucose incorporation)
# Assay type: cell-based, Wistar rats
# PROTOCOL CONDITIONS: concentration with reinforcing effect of 50% of that of insulin (100 nM) = 100%; rat adipose cells, 30 min pre-culture at 37° C., 5 min uptake
QUANTITY KIND: A: sugar transportation activity (EC50) (µg/mL)

Known results for molecules:
CCOCC(=O)N1[C@@H]2CCCC[C@H]2NC2=C(C(=O)NC2)[C@H]1c1ccccc1C [Compound 84] = 4
O=C1NCC2=C1[C@@H](c1ccccc1OC(F)(F)F)N(C(=O)CO)[C@@H]1CCCC[C@H]1N2 [Compound 68] = 2.7
COc1ccccc1[C@@H]1C2=C(CNC2=O)N[C@@H]2CCCC[C@H]2N1C(=O)c1cnccn1 [Compound 36] = 8.6
COc1ccccc1[C@@H]1C2=C(CNC2=O)N[C@@H]2CCCC[C@H]2N1C(=O)CCCO [Compound 19] = 4.8
COc1ccccc1[C@@H]1C2=C(CNC2=O)N[C@@H]2CCCC[C@H]2N1C(=O)c1ccccn1 [Compound 33] = 10

[P] CCOCC(=O)N1[C@@H]2CCCC[C@H]2NC2=C(C(=O)NC2)[C@H]1c1ccc(Cl)cc1 [Compound 141]
[Q] COc1ccccc1[C@@H]1C2=C(CNC2=O)N[C@@H]2CCCC[C@H]2N1C(=O)CCc1ccccc1 [Compound 25]
Q) Among P and Q , whose measured A: sugar transportation activity (EC50) is the smaller figure? # answer = label of selected item
A) Q

---

# Tested on: adipose cells of rats
# ASSAY: Evaluation of the sugar transportation activity (2-[14C(U)]-deoxy-D-glucose incorporation)
# Format: cell-based, Wistar rats
# PROTOCOL CONDITIONS: concentration with reinforcing effect of 50% of that of insulin (100 nM) = 100%; rat adipose cells, 30 min pre-culture at 37° C., 5 min uptake
# Protocol: 1. Preparation of Adipose Cells of Rats: After the decapitation and venesection of 6 male Wistar rats (body weight: 150 to 200 g), an incision was made in the abdomen of each rat to extract 6 g in total of epididymal adipose tissues. […] The sugar transportation activity of the compound (I) of the present invention was evaluated with reference to a method described in a literature [Annual Review of Biochemistry, Vol. 55, p. […]
QUANTITY KIND: A: sugar transportation activity (EC50) (µg/mL)

COc1cc(F)ccc1[C@@H]1C2=C(CNC2=O)N[C@@H]2CCCC[C@H]2N1C(C)=O [Compound 72] = 8
CCc1ccccc1[C@@H]1C2=C(CNC2=O)N[C@@H]2CCCC[C@H]2N1C(=O)COC [Compound 97] = 6
CCCC(=O)N1[C@@H]2CCCC[C@H]2NC2=C(C(=O)NC2)[C@H]1c1ccccc1OC [Compound 3] = 4.6
COc1ccccc1[C@@H]1C2=C(CNC2=O)N[C@@H]2CCCC[C@H]2N1C(=O)COC(C)=O [Compound 9] = 5.9
